# targetDesc: Calcium/calmodulin-dependent protein kinase type 1D (Homo sapiens);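 note: reported figure is the mean percent inhibition of CAMK1D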
# measurementContext: at 1 µM
quantityKind: inhibition (%)
Answers are plain numbers, in %.

// worked examples, inhibition included
FC(F)(F)c1ccc(-c2nn3ncccc3c2-c2ccnc(Nc3ccc4c(c3)OCCO4)n2)cc1 :: -0.58
CN(c1ccc(NC(=O)Nc2ccc(OC(F)(F)F)cc2)cc1)c1ccnc(Nc2cccc(S(N)(=O)=O)c2)n1 :: 0.2
COc1cccc(-n2ncc3c(N/N=C/c4ccc(C)cc4)ncnc32)c1 :: 3.47

I need inhibition for every entry listed below, if you could help.
1. Cc1ccc(NC(=O)CC2CC2)cc1-c1ccc(C(=O)NCC2CC2)cc1
2. CN(C)C(=O)O[C@@H]1CN[C@@H](C#Cc2cc3ncnc(Nc4ccc(OCc5cccc(F)c5)c(Cl)c4)c3s2)C1
3. COc1cc(/C=N/Nc2ncnc3c2cnn3C(C)C)ccc1O
4. c1ccc(Nc2ncc(-c3ccccc3)o2)cc1
5. Nc1nccc(-c2c(-c3ccc(F)cc3)ncn2CCCN2CCOCC2)n1
6. Cc1ccc(Nc2ccnc(Nc3cccc(C(N)=O)c3)n2)cc1O
7. C[C@@H](Oc1cc(-n2cnc3ccc(OC[C@@H](O)CO)cc32)sc1C(N)=O)c1ccccc1Cl

1: 0.89; 2: 1.9; 3: 0.59; 4: 2.94; 5: -0.53; 6: 4.12; 7: 0.92
